test system: HCT-15 colon; assay: NCI-60 one-dose screen, 48 h (100 = growth as untreated, 0 = no growth, -100 = all killed); details: 10 µM unless noted
Compounds without any hit were thinned out: in the full panel of roughly 83,000, 20% have a hit.
observed.property: growth (%)
// units = %; emit number, no label

Would you kindly share the measured growth for CCCn1c(=S)sc2c(NNC(C)=O)nc(C)nc21 ? 90.2

Would you kindly share the measured growth for COCCn1cc(-c2nc(-c3c[nH]c4ncccc34)cs2)c2ccccc21 ? 20.3

Would you kindly share the measured growth for O=S(=O)(Nc1cc(F)cc(F)c1)c1ccc(-c2cnc(C3CC3)o2)cc1 ? 20

Would you kindly share the measured growth for Cc1c2ccccc2nc2cc3c(cc12)[C@H]1CC[C@]2(C)C(=O)CC[C@H]2[C@@H]1CC3 ? 90.3

Would you kindly share the measured growth for COc1cccc(CNc2c3ccccc3nc3ccccc23)c1OC ? 19.8

---

Hi there, I'd appreciate the recorded growth for every entry that follows.
system: MOLT-4 leukemia; experiment: NCI-60 one-dose screen, 48 h (100 = growth as untreated, 0 = no growth, -100 = all killed); conditions: 10 µM unless noted
This is part of a sample that, as a whole, favours compounds with a hit. Of some 83,000 tested, about 20% had one in any assay.
// units = %; emit number, no label

Would you kindly share the measured growth for COc1cc(/C=N/NC(=O)c2ccc(-n3cc(-c4ccccc4)nn3)cc2)cc(OC)c1OC ? 78.3

Would you kindly share the measured growth for CNC(=O)Nc1ccc(-c2ccc3ncnc(Nc4cccc(Cl)c4)c3c2)cc1 ? 36.7

Would you kindly share the measured growth for CN1CC(c2ccc(Br)cc2)C(C(=O)c2ccc(Br)cc2)C12C(=O)Nc1ccccc12 (configuration not stated) ? 64.3

Would you kindly share the measured growth for O=C(/C=C/c1ccccc1Cl)c1cccc(OCCCCOc2cccc(C(=O)/C=C/c3ccccc3Cl)c2)c1 ? 93.9

Would you kindly share the measured growth for CCOC(=O)c1[nH]cc2c1CCc1sc(Nc3ccccn3)nc1-2 ? 55.2

Would you kindly share the measured growth for CCOC(=O)C/C(=N\Nc1cc(=O)[nH]c2ccc(C)cc12)C(=O)OCC ? 18.3

Would you kindly share the measured growth for CN1C(=O)N2CN3CCCN(C3)CN3C(=S)NC1C23 (configuration not stated) ? 111

Would you kindly share the measured growth for CCOC(=O)C1=C(CCl)N(C)C(=O)NC1c1ccc2c(c1)OCO2 (configuration not stated) ? 53.2

Would you kindly share the measured growth for Cc1nc2sc(C(=O)Nc3cccc(Cl)c3C)c(N)c2cc1C(=O)/C=C/c1ccccc1 ? 16.8

Would you kindly share the measured growth for COC(=O)[C@@]1(C)CC[C@]2(C)CC[C@]3(C)C4=CC=C5C(=CC(=O)C(O)=C5C)[C@]4(C)[C@@H](O)C[C@@]3(C)[C@@H]2C1 ? -20

Would you kindly share the measured growth for CCN(CCNc1ccc(C)c2sc3cc(Cl)ccc3c(=O)c12)CC(C)(C)O ? 70.5

Would you kindly share the measured growth for c1cc(OCCN2CCCCCC2)ccc1CNc1ccc2nc(CCC3CCCCC3)[nH]c2c1 ? 25.5

Would you kindly share the measured growth for COc1ccc(C(c2cc(OC)c(OC)c(OC)c2)N2CCCCC2)cc1 (configuration not stated) ? 31.5

Would you kindly share the measured growth for COC1C(O)CC(OC2CC(OC3CC(O[C@@H]4C(=O)c5c(cc6cc(OC7CC(OC8CC(O)C(O)C(C)O8)C(O)C(C)O7)c(C)c(O)c6c5O)CC4[C@H](OC)C(=O)C(C)=O)OC(C)C3O)OC(C)C2O)OC1C (some centres not stated) ? -6.83

Would you kindly share the measured growth for COc1ccc(/C=C2\CN(C(=O)C(Cl)Cl)C/C(=C\c3ccc(OC)c(OC)c3)C2=O)cc1OC ? 5.43

Would you kindly share the measured growth for O=CCCCOCc1ccccc1 ? 103

Would you kindly share the measured growth for CC1(/C=C/c2ccc(-c3ccccc3)cc2)CCn2cnc3ncnc(c32)N1O (configuration not stated) ? 14.2

Would you kindly share the measured growth for O=C(/C=C/c1ccco1)Nc1ncc(Cc2cc(Cl)ccc2Cl)s1 ? 14

Would you kindly share the measured growth for c1cc(OCCN2CCCC2)ccc1CNc1ccc2nc(CCC3CCCCC3)[nH]c2c1 ? 9.92

Would you kindly share the measured growth for COc1ccc2c(O)c(/C=C3\N=Nc4ncccc43)oc2c1C[C@@H]1CCNC[C@H]1F ? -9.39

Would you kindly share the measured growth for CC1(C)CC[C@]2(CO)CC[C@]3(C)[C@](O)([C@H](O)C[C@@H]4[C@@]5(C)CCCNC(C)(C)[C@@H]5CC[C@]43C)[C@@H]2C1 ? 46

Would you kindly share the measured growth for ClCCn1cnc2c(SCc3ccccc3)ncnc21 ? 45.8

Would you kindly share the measured growth for COc1ccc2c(c1)CC[C@@H]1[C@@H]2CC[C@]2(C)c3c(cc(C#N)c4c3sc3ccccc34)C[C@@H]12 ? 92.1

Would you kindly share the measured growth for COc1ccc(C2C3=C(COC3=O)N(CCO)c3cc4c(cc32)OCO4)cc1OC (configuration not stated) ? 88.5

Would you kindly share the measured growth for COc1cc(-c2ccc[nH]2)[nH]c1/C=C1\N=C(C)C(CC(=O)OCC(C)(C)C)=C1C ? -37

Would you kindly share the measured growth for CCCCCCCCn1ccc2cc(NC(=O)CN=[N+]=[N-])ccc21 ? 93.3

Would you kindly share the measured growth for CCN(CC)C(=O)CC1=C(C)/C(=C/c2[nH]c(-c3ccc[nH]3)cc2OC)N=C1C ? 12.4

Would you kindly share the measured growth for CCOC(=O)c1nnn(-c2no[n+]([O-])c2-c2ccc(OC)cc2)c1COc1cccc2cccnc12 ? 10

Would you kindly share the measured growth for O=C1C=C(SCCO)C(=O)c2ccccc21 ? 2.43

Would you kindly share the measured growth for CCOC(=O)CC1CSC(N/N=C/c2ccc(F)c(Br)c2)=N1 (configuration not stated) ? 88.5

Would you kindly share the measured growth for Cc1ccc2c(c1)nc(C)n2-c1ncnc2c1CC(C)c1cc(O)ccc1N2C (configuration not stated) ? 13.4

Would you kindly share the measured growth for Clc1ccc2nn3c4ccccc4c(OCCN4CCOCC4)nc3c2c1 ? 95.3

---

system: TK-10 renal; experiment: NCI-60 one-dose screen, 48 h; settings: 10 µM unless noted
This is part of a sample that, as a whole, favours compounds with a hit. Of some 83,000 tested, about 20% had one in any assay. Activity calls are given as the source filed them. Rule for the calls: active = growth percent below 10; inactive = the rest.
Would you mind answering with one of these outcomes? true (1) for active, false (0) for inactive

Lab log entry: O=C(NC1CCC(Br)CC1)C1CCCC(S(=O)(=O)NC2CCCCC2)C1 (stereo unspecified) — outcome as called in the assay? false (0)

Lab log entry: Nc1ncnc2c1N=C(c1ccc(Cl)cc1)CC(c1cccc(Nc3ccnc4cc(Cl)ccc34)c1)N2 (stereo unspecified) — outcome as called in the assay? false (0)

Lab log entry: C(=C(\C1=NCCN1)n1ccc2ccccc21)/c1ccccc1 — outcome as called in the assay? false (0)

Lab log entry: Cc1nc(N/N=C/c2cn(-c3ccccc3)nc2-c2cc3ccccc3oc2=O)sc1N=Nc1ccccc1 — outcome as called in the assay? false (0)

Lab log entry: ClC(Cl)c1nc(-c2ccccc2)n2nc(-c3ccccc3)cc2n1 — outcome as called in the assay? true (1)

Lab log entry: CCOc1ccc(NC(=O)Nc2ccc(OCC)cc2)cc1 — outcome as called in the assay? false (0)

Lab log entry: O=C(Nc1cccnc1Nc1ccccc1)c1cn(Cc2cccc(Oc3ccccc3)c2)nn1 — outcome as called in the assay? false (0)

Lab log entry: Cc1c2cnccc2c(C)c2c1c1cc(CO)ccc1n2C — outcome as called in the assay? true (1)

Lab log entry: CC12OC(CC(O)C1O)n1c3ccccc3c3c4c(c5c6ccccc6n2c5c31)C(=O)N(CCN1CCCC1)C4=O (stereo unspecified) — outcome as called in the assay? false (0)

Lab log entry: COc1cc(O)c2c(=O)c3c(CC=C(C)C)cc(OC)c(O)c3oc2c1 — outcome as called in the assay? false (0)

Lab log entry: O=C(Nc1cc(Cl)cc(Cl)c1)Oc1c(Cl)c(Cl)c(Cl)c(Cl)c1Cl — outcome as called in the assay? false (0)

Lab log entry: CS(=O)/C(C#N)=C\C=C\c1cccc(Cl)c1 (stereo unspecified) — outcome as called in the assay? false (0)

Lab log entry: N#Cc1c(-c2ccccc2)cc(-c2ccccc2)n(CCCCC(=O)NO)c1=O — outcome as called in the assay? false (0)

Lab log entry: c1ccc2cc(Cn3cc(CSc4nc5ccccc5s4)nn3)ccc2c1 — outcome as called in the assay? false (0)

Lab log entry: CC(C)CCC[C@@H](C)[C@H]1CC[C@H]2[C@@H]3CC=C4c5sc(Nc6cc(C(F)(F)F)cc(C(F)(F)F)c6)nc5CC[C@]4(C)[C@H]3CC[C@]12C — outcome as called in the assay? false (0)

Lab log entry: O=c1oc2c(cnc3ccccc32)cc1-c1cccc(Cl)c1 — outcome as called in the assay? false (0)

Lab log entry: Clc1ccc(Nc2nnc(CNc3ccccc3)c3ccccc23)cc1 — outcome as called in the assay? true (1)

Lab log entry: c1cc(OCCN2CCCCCC2)ccc1CNc1ccc2nc(CCC3CCCCC3)[nH]c2c1 — outcome as called in the assay? false (0)

Lab log entry: O=C(/C=C/c1ccccc1Cl)c1cccc(OCCCCOc2cccc(C(=O)/C=C/c3ccccc3Cl)c2)c1 — outcome as called in the assay? false (0)

Lab log entry: COc1ccc(C=Nc2c(C(=O)Nc3cccc(Cl)c3C)sc3nc(C)c(C(=O)/C=C/c4ccc(OC)cc4)cc23)cc1 — outcome as called in the assay? false (0)

Lab log entry: COc1ccc(/C=C/C(c2cc(OC)c(OC)c(OC)c2)n2cncn2)cc1O (stereo unspecified) — outcome as called in the assay? false (0)
